Measured target: Acyl-CoA:cholesterol acyltransferase (Oryctolagus cuniculus, UniProt Q95214)
Sequence (Q95214 whole entry): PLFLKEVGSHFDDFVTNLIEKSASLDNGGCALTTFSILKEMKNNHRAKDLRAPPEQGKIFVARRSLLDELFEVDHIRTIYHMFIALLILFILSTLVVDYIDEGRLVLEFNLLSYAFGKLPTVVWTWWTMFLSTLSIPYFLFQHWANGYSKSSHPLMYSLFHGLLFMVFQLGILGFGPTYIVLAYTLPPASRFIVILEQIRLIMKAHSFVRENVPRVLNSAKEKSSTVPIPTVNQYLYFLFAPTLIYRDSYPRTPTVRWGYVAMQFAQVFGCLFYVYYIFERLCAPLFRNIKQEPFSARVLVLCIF
Protocol: Inhibition against acyl coenzyme A:cholesterol acyltransferase derived from rabbit aorta homogenate
Format: tissue-based
Records here are stratified by IC50; strata: 1 = under 100 nM, 2 = from 100 nM up to 300 nM, 3 = 300 nM and over

Smiles representation	Label
CCCCCNC(=O)Nc1c(C)cccc1OCCCn1cnc(-c2ccccc2)c1C(C)C	1
CCCCCNC(=O)Nc1c(C)cccc1OCCCn1cnc(-c2ccc([N+](=O)[O-])cc2)c1	3
CCCCCNC(=O)Nc1c(C)cccc1SCCCn1cnc(-c2ccccc2)c1C	1
CCCCCNC(=O)Nc1c(O)cccc1OCCCn1cnc(-c2ccccc2)c1C	3
CCCCCNC(=O)Nc1c(C)cccc1OCCCn1cnc2c1CCc1ccccc1-2	2
Cc1cccc(OCCCn2cnc(-c3ccccc3)c2CO)c1NC(=O)NCCC(C)C	2
CCCCCNC(=O)Nc1c(C)cccc1OCCCn1cnc(-c2ccccc2)c1CO	2
CCCCCNC(=O)Nc1c(C#N)cccc1OCCCn1cnc(-c2ccccc2)c1C	3
CCCCCNC(=O)Nc1c(C)cccc1OCCCn1cnc(-c2ccccc2)c1CSC	2
CCCCCNC(=O)Nc1c(C)cccc1OCCCn1cnc(-c2cccc(NS(C)(=O)=O)c2)c1	3
CCCCCNC(=O)Nc1c(CO)cccc1OCCCn1cnc(-c2ccccc2)c1C	3
CCCCCNC(=O)Nc1c(CN(C)C)cccc1OCCCn1cnc(-c2ccccc2)c1C	3
CCCCCNC(=O)Nc1c(C)cccc1OCCCn1cnc(-c2c(OC)cc(OC)cc2OC)c1	3
CCCCNC(=O)Nc1c(C)cccc1OCCCn1cnc(-c2ccccc2)c1C	3
CCCCCNC(=O)Nc1c(C)cccc1OCCCn1cnc(-c2ccccc2)c1CN(C)C	3
CCCCCNC(=O)Nc1c(C)cccc1OCCCn1cnc(-c2ccc(Cl)cc2)c1	2
CCCCCNC(=O)Nc1c(C)cccc1OCCCn1cnc(-c2cccc([N+](=O)[O-])c2)c1	2
CCc1c(-c2ccccc2)ncn1CCCOc1cccc(C)c1NC(=O)NCCC(C)C	1
